Target: T1, 4H2442-bN
T1 chain: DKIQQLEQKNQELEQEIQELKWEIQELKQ
Test: two-hybrid library CCNG1;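 also: natural log of median RNA to DNA barcode read ratio; higher means stronger binding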
observable: interaction score
Output: the number by itself.

Looking up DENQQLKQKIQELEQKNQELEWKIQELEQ [4H1845-bN] , I found its interaction score recorded as -0.755

Looking up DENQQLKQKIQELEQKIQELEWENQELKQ [4H1828-bN] , I found its interaction score recorded as -0.746

Looking up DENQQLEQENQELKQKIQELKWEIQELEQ [4H1257-bN] , I found its interaction score recorded as -1.13

Looking up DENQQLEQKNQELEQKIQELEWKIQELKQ [4H1446-bN] , I found its interaction score recorded as 0.215

Looking up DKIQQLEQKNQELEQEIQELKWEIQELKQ [4H2442-bN] , I found its interaction score recorded as -0.216

Where do these numbers come from? They come from paper PMC10397247.
